Item-by-item account of SIF
# experiment_description: Stability in Simulated Intestinal Fluid (SIF)
# Type: in vitro ADME
# Set-up: key: % parent compound remaining relative to 0-minute sample
# condition: % remaining @ 1 h
measurement_kind: SIF (%@ 1 h)

molecule	reported_value
CC(C)OCCn1c(=S)[nH]c(=O)c2c1ccn2COC(=O)CCCCOC(=O)CNC(=O)OC(C)(C)C [Example 328]	6
CC(C)C[C@@H](N)C(=O)OCn1ccc2c1c(=O)n(CO)c(=S)n2CCOC(C)C.O=C(O)C(F)(F)F [Example 327]	49

----------
Item-by-item account of SIF
# experiment_description: Stability in Simulated Intestinal Fluid (SIF)
# Assay type: in vitro ADME
# Parameters: key: % parent compound remaining relative to 0-minute sample
# condition: simulated intestinal fluid, at 1 h
measurement_kind: SIF

compound	reported_value
CC(C)OCCn1c(SCOC(=O)N(C)c2ccccc2Cl)nc(=O)c2c1ccn2COC(=O)N(C)c1ccccc1Cl [Example 249]	95% remaining
Cc1cccc(N(C)C(=O)OCSc2nc(=O)c3[nH]ccc3n2CCOC(C)C)c1 [Example 245]	99% remaining
Cc1cccc(N(C)C(=O)OCn2c(=O)c3c(ccn3COC(=O)N(C)c3cccc(C)c3)n(CCOC(C)C)c2=S)c1 [Example 247]	81% remaining
Cc1ccccc1N(C)C(=O)OCSc1nc(=O)c2c(ccn2COC(=O)N(C)c2ccccc2C)n1CCOC(C)C [Example 243]	99% remaining
CC(C)OCCn1c(=S)[nH]c(=O)c2c1ccn2COC(=O)N(C)c1ccccc1Cl [Example 250]	93% remaining
CC(C)OCCn1c(=S)[nH]c(=O)c2c1ccn2COC(=O)Oc1cccc(F)c1 [Example 234]	8% remaining
CC(C)OCCn1c(SCOC(=O)N(C)c2ccccc2Cl)nc(=O)c2[nH]ccc21 [Example 240]	97% remaining
Cc1ccc(OC(=O)OCn2ccc3c2c(=O)[nH]c(=S)n3CCOC(C)C)cc1 [Example 236]	1% remaining at
Cc1cccc(N(C)C(=O)OCSc2nc(=O)c3c(ccn3COC(=O)N(C)c3cccc(C)c3)n2CCOC(C)C)c1 [Example 246]	99% remaining
COC(=O)n1ccc2c1c(=O)[nH]c(=S)n2CCOC(C)C [Example 233]	70% remaining
Cc1cccc(OC(=O)OCn2ccc3c2c(=O)[nH]c(=S)n3CCOC(C)C)c1 [Example 237]	2% remaining
CC(C)OCCn1c(SCOC(=O)N(C)c2ccccc2F)nc(=O)c2[nH]ccc21 [Example 239]	96% remaining
Cc1ccccc1N(C)C(=O)OCSc1nc(=O)c2[nH]ccc2n1CCOC(C)C [Example 242]	96% remaining
CCOC(=O)n1ccc2c1c(=O)[nH]c(=S)n2CCOC(C)C [Example 230]	33% remaining
CC(C)COC(=O)n1ccc2c1c(=O)[nH]c(=S)n2CCOC(C)C [Example 232]	3% remaining
COc1ccc(N(C)C(=O)OCSc2nc(=O)c3[nH]ccc3n2CCOC(C)C)cc1 [Example 254]	94% remaining

----------
# experiment_description: Stability in Simulated Intestinal Fluid (SIF)
# Type: in vitro ADME
# Set-up: key: % parent compound remaining relative to 0-minute sample
# condition: % remaining at 1 h in simulated intestinal fluid

line_notation	SIF / % remaining
CC(C)OCCn1c(=S)[nH]c(=O)c2c1ccn2COC(=O)CCCCNC(=O)[C@H](CCc1ccccc1)NC(=O)OC(C)(C)C.O=C(O)C(F)(F)F	65
CSCC[C@H](NC(=O)OC(C)(C)C)C(=O)NCCC(=O)OCn1ccc2c1c(=O)[nH]c(=S)n2CCOC(C)C	62
CC(C)OCCn1c(=S)[nH]c(=O)c2c1ccn2COC(=O)CCNC(=O)[C@H](CCc1ccccc1)NC(=O)OC(C)(C)C.O=C(O)C(F)(F)F	57

----------
# experiment_description: Plasma Stability
# Assay type: in vitro ADME, human
# condition: % remaining at 1 h in human plasma; the 15th table

line_notation	human Plasma stability (% remaining)
CC(C)NC(=O)OCSc1nc(=O)c2c(ccn2C(=O)NC(C)C)n1CCOC(C)C	97
CC(C)OCCn1c(SCOC(=O)NCc2ccccc2)nc(=O)c2c1ccn2C(=O)NCc1ccccc1	95
COC(=O)OCSc1nc(=O)c2[nH]ccc2n1CCOC(C)C	2
CC(C)NC(=O)OCSc1nc(=O)c2[nH]ccc2n1CCOC(C)C	99
CCOC(=O)OCSc1nc(=O)c2c(ccn2CSc2nc(=O)c3[nH]ccc3n2CCOC(C)C)n1CCOC(C)C	3
CCOC(=O)OCSc1nc(=O)c2[nH]ccc2n1CCOC(C)C	0

----------
# experiment_description: Stability in Simulated Intestinal Fluid (SIF)
# Type: in vitro ADME
# Set-up: key: % parent compound remaining relative to 0-minute sample
# condition: % remaining at 1 h in simulated intestinal fluid; the 15th table
Lab note: anything with SIF below 60 % remaining is marked fulfilled; values at 60 % remaining or higher are marked not fulfilled.

line_notation	assigned_label
CC(C)OCCn1c(SCOC(=O)OC(C)C)nc(=O)c2[nH]ccc21	not fulfilled
COC(=O)OCSc1nc(=O)c2c(ccn2COC(=O)OC)n1CCOC(C)C	not fulfilled
CCOC(=O)OCSc1nc(=O)c2[nH]ccc2n1CCOC(C)C	fulfilled
CCOC(=O)OCSc1nc(=O)c2c(ccn2CSc2nc(=O)c3[nH]ccc3n2CCOC(C)C)n1CCOC(C)C	fulfilled
CC(C)NC(=O)OCSc1nc(=O)c2c(ccn2C(=O)NC(C)C)n1CCOC(C)C	not fulfilled

----------
# experiment_description: Stability in Simulated Intestinal Fluid (SIF)
# Type: in vitro ADME
# Parameters: key: % parent compound remaining relative to 0-minute sample
# condition: simulated intestinal fluid, remaining at 1 h
Lab note: anything with SIF below 60 % remaining is marked fulfilled; values at 60 % remaining or higher are marked not fulfilled.

line_notation	assigned_label
CC(C)C[C@@H](N)C(=O)OCCC(=O)OCn1ccc2c1c(=O)[nH]c(=S)n2CCOC(C)C.O=C(O)C(F)(F)F	fulfilled
CC(C)OCCn1c(SCOC(=O)CCCOC(=O)[C@H](NC(=O)OC(C)(C)C)C(C)C)nc(=O)c2c1ccn2COC(=O)CCCOC(=O)[C@H](NC(=O)OC(C)(C)C)C(C)C	fulfilled
CSCC[C@H](N)C(=O)OCCCCC(=O)OCn1ccc2c1c(=O)[nH]c(=S)n2CCOC(C)C.O=C(O)C(F)(F)F	not fulfilled
CC(C)OCCn1c(=S)n(COC(=O)CCCOC(=O)[C@H](N)C(C)C)c(=O)c2c1ccn2COC(=O)CCCOC(=O)[C@H](N)C(C)C.O=C(O)C(F)(F)F.O=C(O)C(F)(F)F	fulfilled
CC(C)OCCn1c(=S)n(COC(=O)CCCOC(=O)[C@@H](Cc2ccccc2)NC(=O)OC(C)(C)C)c(=O)c2c1ccn2COC(=O)CCCOC(=O)[C@@H](Cc1ccccc1)NC(=O)OC(C)(C)C	fulfilled

----------
# experiment_description: Stability in Simulated Gastric Fluid (SGF)
# Assay type: in vitro ADME
# Set-up: key: % parent compound remaining relative to 0-minute sample
# condition: % remaining at 1 h; SGF with pepsin pH 1.2, 2 μg/mL, 37° C.

line_notation	u	SGF
CC(C)OCCn1c(=S)[nH]c(=O)c2c1ccn2COC(=O)CCCCNC(=O)[C@@H](N)C(C)C	%	100
Cc1ccc(S(=O)(=O)n2ccc3c2c(=O)[nH]c(=S)n3CCOC(C)C)cc1C	%	99
CC(C)OCCn1c2nc(=O)c3c1ccn3COC(=O)CCCCCCC(=O)OCS2	%	86
CC(C)OCCn1c(=S)[nH]c(=O)c2c1ccn2COCC[Si](C)(C)C	%	97
CC(C)OCCn1c(=S)[nH]c(=O)c2c1ccn2S(C)(=O)=O	%	96

----------
# experiment_description: Plasma Stability
# Format: in vitro ADME, human
# condition: % remaining @ 1 h

line_notation	human Plasma stability / %@ 1 h
CC(C)C[C@@H](N)C(=O)OCSc1nc(=O)c2c(ccn2COC(=O)[C@H](N)CC(C)C)n1CCOC(C)C.O=C(O)C(F)(F)F.O=C(O)C(F)(F)F	1
CC(C)C[C@H](N)C(=O)OCSc1nc(=O)c2c(ccn2COC(=O)[C@@H](N)CC(C)C)n1CCOC(C)C.O=C(O)C(F)(F)F.O=C(O)C(F)(F)F	1
CC(C)C[C@@H](N)C(=O)OCn1ccc2c1c(=O)n(CO)c(=S)n2CCOC(C)C.O=C(O)C(F)(F)F	21
CC(C)C[C@@H](N)C(=O)OCn1ccc2c1c(=O)[nH]c(=S)n2CCOC(C)C.O=C(O)C(F)(F)F	1
CC(C)C[C@@H](NC(=O)OC(C)(C)C)C(=O)OCSc1nc(=O)c2c(ccn2COC(=O)[C@@H](CC(C)C)NC(=O)OC(C)(C)C)n1CCOC(C)C	85
CC(C)C[C@@H](NC(=O)OC(C)(C)C)C(=O)OCn1c(=O)c2c(ccn2COC(=O)[C@@H](CC(C)C)NC(=O)OC(C)(C)C)n(CCOC(C)C)c1=S	42
